# EXPERIMENTAL TARGET: GST-tagged truncated human mutant G2019S LRRK2 (Homo sapiens (Human), UniProt Q5S007, G2019S)
# Sequence (Q5S007 970-2527 G2019S): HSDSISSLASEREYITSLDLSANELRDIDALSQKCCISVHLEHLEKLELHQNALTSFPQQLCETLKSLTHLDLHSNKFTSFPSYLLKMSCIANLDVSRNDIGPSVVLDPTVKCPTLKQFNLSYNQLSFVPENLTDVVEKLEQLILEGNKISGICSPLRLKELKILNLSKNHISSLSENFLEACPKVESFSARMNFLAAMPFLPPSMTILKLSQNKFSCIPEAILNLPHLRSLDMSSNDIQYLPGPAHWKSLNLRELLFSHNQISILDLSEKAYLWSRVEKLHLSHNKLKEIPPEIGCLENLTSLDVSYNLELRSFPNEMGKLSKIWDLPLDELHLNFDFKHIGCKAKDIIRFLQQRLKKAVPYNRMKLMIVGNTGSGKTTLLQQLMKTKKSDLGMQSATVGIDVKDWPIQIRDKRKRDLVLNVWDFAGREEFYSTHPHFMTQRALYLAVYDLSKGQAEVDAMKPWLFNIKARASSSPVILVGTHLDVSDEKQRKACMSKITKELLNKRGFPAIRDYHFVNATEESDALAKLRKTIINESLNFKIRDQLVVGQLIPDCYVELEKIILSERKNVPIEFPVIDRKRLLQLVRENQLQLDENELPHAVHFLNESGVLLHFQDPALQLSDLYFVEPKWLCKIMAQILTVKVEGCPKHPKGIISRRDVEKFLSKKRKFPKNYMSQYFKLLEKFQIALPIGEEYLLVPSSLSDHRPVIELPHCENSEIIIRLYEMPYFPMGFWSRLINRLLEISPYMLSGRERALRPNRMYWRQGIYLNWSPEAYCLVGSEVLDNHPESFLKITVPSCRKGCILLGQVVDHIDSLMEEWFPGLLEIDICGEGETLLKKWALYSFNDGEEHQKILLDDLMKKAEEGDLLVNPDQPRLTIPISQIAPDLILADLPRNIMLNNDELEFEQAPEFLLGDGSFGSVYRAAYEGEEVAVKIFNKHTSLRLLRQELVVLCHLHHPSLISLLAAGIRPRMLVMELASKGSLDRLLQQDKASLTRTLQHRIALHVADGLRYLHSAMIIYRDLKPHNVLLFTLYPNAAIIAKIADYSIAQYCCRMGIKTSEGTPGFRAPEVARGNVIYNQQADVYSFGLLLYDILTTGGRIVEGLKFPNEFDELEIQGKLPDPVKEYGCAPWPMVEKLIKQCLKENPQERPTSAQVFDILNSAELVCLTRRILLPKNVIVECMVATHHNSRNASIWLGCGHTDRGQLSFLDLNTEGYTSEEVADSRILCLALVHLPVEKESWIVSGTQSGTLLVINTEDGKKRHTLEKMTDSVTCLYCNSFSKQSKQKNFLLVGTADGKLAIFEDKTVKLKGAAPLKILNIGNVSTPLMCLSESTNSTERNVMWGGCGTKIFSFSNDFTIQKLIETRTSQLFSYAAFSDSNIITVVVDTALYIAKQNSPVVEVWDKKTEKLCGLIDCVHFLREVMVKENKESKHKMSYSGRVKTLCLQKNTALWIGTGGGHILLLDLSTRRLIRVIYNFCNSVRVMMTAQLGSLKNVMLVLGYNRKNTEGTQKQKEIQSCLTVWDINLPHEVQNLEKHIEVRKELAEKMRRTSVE
# PROCEDURE TEXT: LRRK2 G2019S Km ATP LanthaScreen assay
# Type: biochemical
# STUDY CONDITIONS: G2019S LRRK2, 134 μM ATP (Km ATP), LRRKtide substrate
The entries below are paired with their reported LRRK2 pIC50.
Write the value as a bare number.

See these solved cases before continuing.
* Cc1nn(C2CC2)c2c1OC[C@@H]1CC[C@H]1Nc1nc(ncc1Cl)N2 [Ex-2.60] | 9.41
* Cc1nn(C2CCC2)c2c1OC[C@H]1CC(F)(F)C[C@@H]1Nc1nc(ncc1C(F)(F)F)N2 [Ex-4.1] | 6.25
* Cc1nn(C2CC2)c2c1OC[C@@H]1COC[C@H]1Nc1nc(ncc1Cl)N2 [Ex-2.55] | 8.94
* COC(=O)c1nn(C2CCC2)c2c1OC[C@@H]1COC[C@H]1Nc1nc(ncc1C(F)(F)F)N2 [Ex-5.6] | 9.80

Reported LRRK2 pIC50, compound Cc1nn(C2CCC2)c2c1OC[C@H]1CC[C@H]1Nc1nc(ncc1C(F)(F)F)N2 (single isomer, unassigned) [Ex-2.22] : ____
5.76

Param item = Cc1nn(C2CCC2)c2c1OC[C@@H]1COCC[C@H]1Nc1nc(ncc1C(F)(F)F)N2 [Ex-2.34] ; retrieve measured LRRK2 pIC50.
8.00

Reported LRRK2 pIC50 for Cc1nn(C2CCC2)c2c1OC[C@H]1CN(CCO1)c1nc(ncc1C(F)(F)F)N2 (single isomer, unassigned) [Ex-21.1] : what is it?
6.09
